Biological target: Gal(b1-4)GlcNAc(b1-3)Gal(b1-4)GlcNAc(b1-3)Gal(b1-4)GlcNAc(b1-2)Man(a1-3)[Gal(b1-4)GlcNAc(b1-3)Gal(b1-4)GlcNAc(b1-3)Gal(b1-4)GlcNAc(b1-2)Man(a1-6)]Man(b1-4)GlcNAc(b1-4)[Fuc(a1-6)]GlcNAc
Test: glycan array binding signal (z-score within array); higher = stronger binding
Settings: glycan notation: IUPAC condensed, linker removed
This is one part of a sample in which the strongest signals are shown more often than they occur.
// label = 1.0 if glycan array binding signal (z-score) is not less than 3, otherwise 0.0

Look over these answered cases.
[
  {
    "binder": "Sebin1 (Coprinopsis cinerea), A8PEE3 (protein) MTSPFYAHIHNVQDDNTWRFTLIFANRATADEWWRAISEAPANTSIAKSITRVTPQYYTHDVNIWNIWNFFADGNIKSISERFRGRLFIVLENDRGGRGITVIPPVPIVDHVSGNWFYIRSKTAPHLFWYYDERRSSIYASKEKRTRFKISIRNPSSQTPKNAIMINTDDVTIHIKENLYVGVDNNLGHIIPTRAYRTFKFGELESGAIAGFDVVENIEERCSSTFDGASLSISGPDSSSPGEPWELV",
    "group": 1.0
  },
  {
    "binder": "HML-Native (Hypnea musciformis), P84871 (protein) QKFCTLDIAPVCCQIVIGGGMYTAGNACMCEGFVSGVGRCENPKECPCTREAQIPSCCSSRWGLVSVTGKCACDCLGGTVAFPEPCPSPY",
    "group": 1.0
  },
  {
    "binder": "LBL-152 (Laetiporus bicolor), B0D650 (protein) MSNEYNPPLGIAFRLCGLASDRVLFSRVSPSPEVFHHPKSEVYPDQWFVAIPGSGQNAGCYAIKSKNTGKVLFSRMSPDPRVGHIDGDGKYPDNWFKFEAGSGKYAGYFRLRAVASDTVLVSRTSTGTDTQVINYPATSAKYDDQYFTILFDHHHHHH",
    "group": 1.0
  }
]

[in] Reported glycan array binding signal (z-score) reaches at least 3 for EULS2 M2 (Oryza sativa) (protein) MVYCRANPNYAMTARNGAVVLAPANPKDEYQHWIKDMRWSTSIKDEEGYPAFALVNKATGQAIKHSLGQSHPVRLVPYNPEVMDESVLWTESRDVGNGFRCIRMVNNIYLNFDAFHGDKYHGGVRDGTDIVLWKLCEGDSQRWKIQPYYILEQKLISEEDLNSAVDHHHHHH ?
[out] 0.0

[in] Reported glycan array binding signal (z-score) reaches at least 3 for Si Bti9 1b-HA (Solanum lycopersicum) (protein) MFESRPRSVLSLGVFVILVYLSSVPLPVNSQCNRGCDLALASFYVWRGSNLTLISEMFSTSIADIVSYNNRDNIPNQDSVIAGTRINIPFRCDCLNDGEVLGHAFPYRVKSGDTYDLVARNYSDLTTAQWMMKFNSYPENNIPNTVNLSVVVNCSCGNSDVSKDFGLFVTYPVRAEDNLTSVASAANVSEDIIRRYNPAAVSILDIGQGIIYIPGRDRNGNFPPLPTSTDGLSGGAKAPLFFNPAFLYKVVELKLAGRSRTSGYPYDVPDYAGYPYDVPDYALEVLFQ ?
[out] 0.0

[in] Reported glycan array binding signal (z-score) reaches at least 3 for Nc3LysM-2 (protein) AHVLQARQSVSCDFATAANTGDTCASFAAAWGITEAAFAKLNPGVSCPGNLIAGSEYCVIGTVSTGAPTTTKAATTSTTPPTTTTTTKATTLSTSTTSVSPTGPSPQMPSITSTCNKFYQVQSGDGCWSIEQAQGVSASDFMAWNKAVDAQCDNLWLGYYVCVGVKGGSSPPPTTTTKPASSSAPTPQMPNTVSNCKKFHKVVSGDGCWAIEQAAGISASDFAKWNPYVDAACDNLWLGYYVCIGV ?
[out] 0.0

Data provenance: the supplement of paper PMC8728848
